- System: COS-1 cells
- ASSAY: LDH assay (necrosis)
- Assay type: cell-based
- MEASUREMENT CONDITIONS: 30 µM
METRIC: LDH.30µM
Just the number.

Some solved entries appear below for comparison.
COMPOUND: CCN(c1ccc(NC(=O)c2c(-c3ccccc3)noc2C)cc1)C(C)C [Compound 4i]
LDH.30µM: -0.17
//
COMPOUND: CCN(CC)c1ccc(/C=N/c2c(-c3ccccc3)noc2C)c(O)c1 [SI44]
LDH.30µM: 0.36
//
COMPOUND: CCN(CC)c1ccc(NC(=O)c2c(-c3ccncc3)noc2C)cc1 [Compound 39c]
LDH.30µM: -0.68

Req: Could you please provide reported LDH.30µM for CCN(CC)c1ccc(NC(=O)c2c(-c3ccsc3)noc2C)cc1 [Compound 39m] ? Thanks!
Resp: -1.23

Req: Annotate the compound CCN(CC)c1ccc(NC(=O)c2csc([N+](=O)[O-])c2)cc1 [Compound 47u] with its measured LDH.30µM.
Resp: 1.83

Req: Specify LDH.30µM for CCN(CC)c1ccc(NC(=O)c2c(C)noc2-c2ccccc2)cc1 [Compound 65] and stop.
Resp: -0.07

Req: Annotate the compound Cc1onc(-c2ccccc2)c1C(=O)Nc1ccc2oc(-c3ccccc3)cc(=O)c2c1 [Compound 4g] with its measured LDH.30µM.
Resp: -0.1

Req: Please indicate LDH.30µM recorded for CCN(CC)c1ccc(NC(=O)c2cnsc2)cc1 [Compound 47s]
Resp: 0.91

Req: Supply LDH.30µM value. Item: CCN(c1ccc(NC(=O)c2c(C)noc2-c2ccccc2)cc1)C(C)C [Compound 63]
Resp: 0.01

Req: Identify measured LDH.30µM corresponding to CC(=O)COC(=O)c1ccc(OCc2c(-c3ccccc3)noc2C)cc1 [Compound 35d]
Resp: -0.05

Req: Output measured LDH.30µM for this item: CCCn1nnc(-c2ccccc2)c1C(=O)Nc1ccc(N(CC)CC)cc1 [SI65]
Resp: 2.48

Req: Give the reported LDH.30µM for this compound. CC[N+](O)(CC)c1ccc(NC(=O)c2c(-c3ccccc3)noc2C)cc1 [SI4]
Resp: -1.21
